Where do these numbers come from? They come from patent US12215106B2.

assay_info: Plasma pharmacokinetics and brain distribution after single IV, IP and oral administration
Format: in vivo
reported_conditions: male, C57BL/6, mouse, in vivo, iv, 2 mg/kg, Mean plasma conc.
Where a name gives a salt, the structure may show the parent alone.
Exercise: state measured concentration at 6 h for each of the compounds provided.
Give bare numbers, in ng/mL.

Provide measured concentration at 6 h value, entry: [2H]C1([2H])Oc2ccc(Nc3nc(-c4c(C)nc5ccccn45)cs3)cc2O1 [Compound 17, hydrochloride]
0

Now consider the entry below.
State its concentration at 6 h for this compound: [2H]C([2H])([2H])Oc1ccc(Nc2nc(-c3c(C)nc4ccccn34)cs2)cc1 [Compound 15, hydrochloride]
0
